# studyTarget: cIAP2-BIR2 (Homo sapiens (Human), UniProt Q13489)
# Sequence (Q13489 158-242): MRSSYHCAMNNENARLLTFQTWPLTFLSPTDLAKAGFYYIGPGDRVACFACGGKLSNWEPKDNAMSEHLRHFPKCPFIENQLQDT
# assayInfo: BIR binding assay (FRET competition), cIAP2 BIR2
measureName: IC50

• C[C@@H]1CN(CC(=O)N2CC(C)(C)c3[nH]c(=O)c(Cc4ccc(F)cc4)cc32)[C@@H](CN2CCC[C@@H](NC(=O)Cc3ccc(CC(=O)N[C@@H]4CCCN(C[C@H]5CN[C@H](C)CN5CC(=O)N5CC(C)(C)c6[nH]c(=O)c(Cc7ccc(F)cc7)cc65)C4)cc3)C2)CN1 [Example 48] = 10 to 51.3 µM
• C[C@@H]1CN(CC(=O)N2CC(C)(C)c3[nH]c(=O)c(Cc4ccc(F)cc4)cc32)[C@@H](CN2CCC(CN(C)C(=O)c3ccc(C(=O)N(C)CC4CCN(C[C@H]5CN[C@H](C)CN5CC(=O)N5CC(C)(C)c6[nH]c(=O)c(Cc7ccc(F)cc7)cc65)CC4)cc3)CC2)CN1 [Example 96] = 1 to 3.16 µM
• C[C@@H]1CN(CC(=O)N2CC(C)(C)c3[nH]c(=O)c(Cc4ccc(Cl)cc4O)cc32)[C@@H](CN2CCO[C@H](C(=O)NCc3ccc(CNC(=O)[C@@H]4CN(C[C@H]5CN[C@H](C)CN5CC(=O)N5CC(C)(C)c6[nH]c(=O)c(Cc7ccc(Cl)cc7O)cc65)CCO4)cc3)C2)CN1 [Compound 164] = 0.0224 to 1 µM

Okay, next one:
Query :: If you can, please state the reported IC50 value of CC(C)c1ccccc1Cc1cc2c([nH]c1=O)C(C)(C)CN2C(=O)CN1C[C@@H](C)NC[C@@H]1CN1CCO[C@H](C(=O)NCc2ccc(CNC(=O)[C@@H]3CN(C[C@H]4CN[C@H](C)CN4CC(=O)N4CC(C)(C)c5[nH]c(=O)c(Cc6ccccc6C(C)C)cc54)CCO3)cc2)C1 [Compound 173] .
Result :: 3.16 to 10 µM

###

# System: Jurkat HIV-luciferase clones
# assayInfo: Jurkat latency reversal assay
# Format: cell-based
# conditionDescription: Homo sapiens, 48 h; Jurkat latency reversal assay potency; read-out: Jurkat pEC50 (converted)
# maps each entry to its EC50

* C[C@@H]1CN(CC(=O)N2CC(C)(C)c3[nH]c(=O)c(Cc4ccc(F)cc4)cc32)[C@@H](CN2CCO[C@H](COCCCCCOC[C@@H]3CN(C[C@H]4CN[C@H](C)CN4CC(=O)N4CC(C)(C)c5[nH]c(=O)c(Cc6ccc(F)cc6)cc54)CCO3)C2)CN1 [Example 82] | 0.49 to 12.6 nM
* C[C@@H]1CN(CC(=O)N2CC(C)(C)c3[nH]c(=O)c(Cc4ccc(F)cc4)cc32)[C@@H](CN2CCO[C@H](C(=O)NCCN3CCN(C(=O)[C@@H]4CN(C[C@H]5CN[C@H](C)CN5CC(=O)N5CC(C)(C)c6[nH]c(=O)c(Cc7ccc(F)cc7)cc65)CCO4)CC3)C2)CN1 [Compound 134] | 12.6 to 63.1 nM

Query :: If you can, please state the reported EC50 value of C[C@@H]1CN(CC(=O)N2CC(C)(C)c3[nH]c(=O)c(Cc4ccc(F)cc4)cc32)[C@@H](CN2CCO[C@H](C(=O)N(C)CCCCCCN(C)C(=O)[C@@H]3CN(C[C@H]4CN[C@H](C)CN4CC(=O)N4CC(C)(C)c5[nH]c(=O)c(Cc6ccc(F)cc6)cc54)CCO3)C2)CN1 [Example 124] .
Result :: 12.6 to 63.1 nM

Query :: If you can, please state the reported EC50 value of C[C@@H]1CN(CC(=O)N2CC(C)(C)c3[nH]c(=O)c(Cc4ccc(F)cc4)cc32)[C@@H](CN2CCN(C(=O)c3cccnc3-c3ncccc3C(=O)N3CCN(C[C@H]4CN[C@H](C)CN4CC(=O)N4CC(C)(C)c5[nH]c(=O)c(Cc6ccc(F)cc6)cc54)[C@H](C)C3)C[C@H]2C)CN1 [Example 17] .
Result :: 316 to 3310 nM

Where do the numbers come from? From patent US20250326771A1.
